Target: GP IIb IIIa (Homo sapiens, UniProt P05106+P08514)
Construct: from tissue; host or cells: outdated human platelets
Sequence (P08514 32-887 limits assumed): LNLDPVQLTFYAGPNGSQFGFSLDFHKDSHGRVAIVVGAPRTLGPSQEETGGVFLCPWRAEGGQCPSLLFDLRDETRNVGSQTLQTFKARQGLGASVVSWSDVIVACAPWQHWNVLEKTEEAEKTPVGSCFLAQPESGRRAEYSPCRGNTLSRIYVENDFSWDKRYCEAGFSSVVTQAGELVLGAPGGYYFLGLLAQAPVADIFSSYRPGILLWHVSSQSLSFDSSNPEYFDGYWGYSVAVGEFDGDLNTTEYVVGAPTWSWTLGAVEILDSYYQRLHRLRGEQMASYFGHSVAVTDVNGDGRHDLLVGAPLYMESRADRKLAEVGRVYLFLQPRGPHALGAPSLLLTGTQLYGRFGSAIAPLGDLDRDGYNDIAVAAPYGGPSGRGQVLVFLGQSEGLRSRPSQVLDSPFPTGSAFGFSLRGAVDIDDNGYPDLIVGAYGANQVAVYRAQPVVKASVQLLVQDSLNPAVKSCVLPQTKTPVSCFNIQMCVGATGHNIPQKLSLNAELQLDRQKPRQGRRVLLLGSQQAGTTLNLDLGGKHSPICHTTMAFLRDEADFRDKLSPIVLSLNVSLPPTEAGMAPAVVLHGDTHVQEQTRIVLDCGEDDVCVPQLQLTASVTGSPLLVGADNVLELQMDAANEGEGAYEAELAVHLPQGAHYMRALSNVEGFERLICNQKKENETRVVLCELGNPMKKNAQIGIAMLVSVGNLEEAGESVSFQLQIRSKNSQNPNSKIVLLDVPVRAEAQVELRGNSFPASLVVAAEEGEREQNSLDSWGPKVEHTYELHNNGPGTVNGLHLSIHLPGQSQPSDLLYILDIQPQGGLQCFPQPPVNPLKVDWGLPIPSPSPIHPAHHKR
Sequence (P08514 891-1039 partner limits assumed): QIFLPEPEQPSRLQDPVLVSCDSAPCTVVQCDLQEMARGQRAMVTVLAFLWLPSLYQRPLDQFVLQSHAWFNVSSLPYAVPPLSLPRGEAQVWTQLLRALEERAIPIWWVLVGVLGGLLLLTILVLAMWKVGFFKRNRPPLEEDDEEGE
Sequence (P05106 27-788): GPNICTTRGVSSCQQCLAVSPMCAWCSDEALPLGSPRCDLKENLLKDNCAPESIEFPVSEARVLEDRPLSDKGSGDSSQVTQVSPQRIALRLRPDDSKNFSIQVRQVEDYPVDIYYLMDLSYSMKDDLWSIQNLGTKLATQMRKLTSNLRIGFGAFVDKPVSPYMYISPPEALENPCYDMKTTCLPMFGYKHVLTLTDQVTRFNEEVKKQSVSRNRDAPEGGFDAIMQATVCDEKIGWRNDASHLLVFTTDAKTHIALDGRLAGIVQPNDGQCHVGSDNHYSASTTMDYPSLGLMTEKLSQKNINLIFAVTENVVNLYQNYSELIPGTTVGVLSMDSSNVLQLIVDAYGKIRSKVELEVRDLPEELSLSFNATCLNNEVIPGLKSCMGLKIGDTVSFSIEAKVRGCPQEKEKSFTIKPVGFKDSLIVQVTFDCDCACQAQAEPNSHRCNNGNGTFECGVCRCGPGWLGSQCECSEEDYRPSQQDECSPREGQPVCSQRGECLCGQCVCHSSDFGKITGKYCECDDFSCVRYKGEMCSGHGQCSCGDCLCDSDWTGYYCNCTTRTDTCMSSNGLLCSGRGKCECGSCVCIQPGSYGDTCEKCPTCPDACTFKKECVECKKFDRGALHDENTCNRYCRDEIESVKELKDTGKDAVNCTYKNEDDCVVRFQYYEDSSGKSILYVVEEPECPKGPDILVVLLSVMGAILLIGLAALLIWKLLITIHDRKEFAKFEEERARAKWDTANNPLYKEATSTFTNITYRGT
Assay: Fibrinogen-GP IIb IIIa Receptor ELISA Binding Assay (Fg/IIbIIIa)
Conditions: Examples 29 and 30, Cmpd # tables; read-out: IC50 (μM) Fg/IIbIIIa
Counter-ions that a name gives are not always drawn.
VALUE_TYPE: IC50 (µM)

Illustrative cases are given below, each with its answer.
- CN1C(=O)CN(CCC(=O)O)C(=O)c2cc3c(cc21)CCC(CCCNC(=N)N)C3 (centres unmarked): 0.068
- N=C(N)NCC#Cc1cccc(C(=O)NCCC(=O)O)c1: 0.552
- NCCOc1ccc(-c2ccc3c(c2)C(=O)N(CCC(=O)O)CC(Cc2ccccc2)O3)cc1 (centres unmarked) [Cmpd 150, trifluoroacetate]: 0.119
- NCCCCCCc1ccc2c(c1)C(=O)N(CCC(=O)O)CC(=O)N2Cc1ccc(C(=O)O)cc1: 0.008
- NCCCC#Cc1cccc(C(=O)NCCC(=O)O)c1: 9

1 = NCCCC#Cc1ccc2c(c1)C(=O)N(CCC(=O)O)CC(=O)N2Cc1cccc(NC(=O)CN)c1
2 = NCCCCCc1ccc2c(c1)C(=O)N(CCC(=O)O)CC(=O)N2Cc1ccc(C(=O)O)cc1
3 = N=C(N)NCCCCCCc1ccc2c(c1)C(=O)N(CCC(=O)O)CC(=O)N2Cc1ccc(C(=O)O)cc1
4 = N=C(N)NCCCc1cccc(C(=O)NCCC(=O)O)c1
5 = N=C(N)NCCCCCCCCOc1ccc2c(c1)C(=O)N(CCC(=O)O)CCC2
Rank the 5 molecules: largest IC50 first, smallest last. Give the labels in the order specified.
5, 4, 2, 1, 3
(5: 50 µM, 4: 2.3 µM, 2: 0.176 µM, 1: 0.068 µM, 3: 0.019 µM)

A = CN1C(=O)CN(CCC(=O)O)C(=O)c2cc3c(cc21)CCC(CCCN)C3 (centres unmarked)
B = NCCCCCCc1ccc2c(c1)C(=O)N(CCC(=O)O)CC(=O)N2Cc1cccc(CCCCN)c1
Hello, I am sorting some records. Could you say if A or B has the smaller IC50 value? Record your answer as the label of the chosen record.
B
(B: 0.024 µM, A: 1.8 µM)

---

Target: GP IIb IIIa (Homo sapiens, UniProt P05106+P08514)
Construct: from tissue; host or cells: outdated human platelets
Assay: Fibrinogen-GP IIb IIIa Receptor ELISA Binding Assay (Fg/IIbIIIa)
Settings: Example 29, Cmpd # 1-105; read-out: IC50 Fg/IIbI
Counter-ions that a name gives are not always drawn.
VALUE_TYPE: IC50 (µM)

Illustrative cases are given below, each with its answer.
* CN1C(=O)CN(CCC(=O)O)C(=O)c2cc(C#CCCCCNC(=N)N)ccc21 | 0.06
* CN1C(=O)C(c2ccccc2)N(CCC(=O)O)C(=O)c2cc(C#CCNC(=N)N)ccc21 (stereo not shown) | 25
* CN1C(=O)CN(CCC(=O)O)C(=O)c2cc(C#CCN)ccc21 | 7
* CN1C(=O)CN(CCC(=O)O)C(=O)c2cc(C#CCCCCN)ccc21 | 0.1
* CN1C(=O)CN(CCC(=O)O)C(=O)c2cc(C#Cc3ccc(CN)cc3)ccc21 | 0.012

1 = N=C(N)NCCCCCCc1ccc2c(c1)C(=O)N(CCC(=O)O)CC(=O)N2Cc1ccc(F)cc1F
2 = N=C(N)NCCCC#Cc1ccc2c(c1)C(=O)N(CCC(=O)O)CC(=O)N2Cc1ccc(F)cc1F
Which value of IC50 is greater, the one for 1 or the one for 2 ? Record your answer as the label of the chosen record.
1
(1: 0.038 µM, 2: 0.024 µM)

1 = CN1C(=O)CN(CCC(=O)O)C(=O)c2cc(CCCCCCN)ccc21
2 = NCCCC#Cc1ccc2c(c1)C(=O)N(CCC(=O)O)CC(=O)N2
3 = CN1C(=O)CN(CCC(=O)O)C(=O)c2cc(CCCNC(=N)N)ccc21
4 = CC1C(=O)N(C)c2ccc(CCCCNC(=N)N)cc2C(=O)N1CCC(=O)O (stereo not shown)
5 = CN1C(=O)CN(C(CC(=O)O)c2ccccc2)C(=O)c2cc(CCCCCCN)ccc21 (stereo not shown)
Ascending by IC50, please. Give the labels in the order specified.
1, 5, 3, 2, 4

I = NCCCCCc1ccc2c(c1)C(=O)N(CCC(=O)O)CC(=O)N2Cc1ccc(Cl)cc1
II = N=C(N)NCCCCC#Cc1ccc2c(c1)C(=O)N(CCC(=O)O)CC(=O)N2Cc1ccc(F)cc1F
Hello, I am sorting some records. Could you say if I or II has the smaller IC50 value? Record your answer as the label of the chosen record.
II

P = NCCCCC#Cc1ccc2c(c1)C(=O)N(CCC(=O)O)CC(=O)N2Cc1ccc(F)cc1F
Q = N=C(N)NCCCCCc1ccc2c(c1)C(=O)N(CCC(=O)O)CC(=O)N2Cc1ccc(F)cc1F
Which value of IC50 is greater, the one for P or the one for Q ? Record your answer as the label of the chosen record.
P
(P: 0.027 µM, Q: 0.016 µM)

1 = CN1C(=O)CN(CCC(=O)O)C(=O)c2cc(CCc3ccc(CNC(=N)N)cc3)ccc21
2 = CC1C(=O)N(C)c2ccc(CCCN)cc2C(=O)N1CCC(=O)O (stereo not shown)
3 = NCCCC#Cc1ccc2c(c1)C(=O)N(CCC(=O)O)CC(=O)N2Cc1ccc(Cl)cc1
Ascending by IC50, please. Give the labels in the order specified.
3, 1, 2

P = CN1C(=O)CN(CCC(=O)O)C(=O)c2cc(C#Cc3ccc(C#N)cc3)ccc21
Q = N=C(N)NCCCC#Cc1ccc2c(c1)C(=O)N(CCC(=O)O)CC(=O)N2
R = N=C(N)NCCCCC#Cc1ccc2c(c1)C(=O)N(CCC(=O)O)CC(=O)N2Cc1ccc([N+](=O)[O-])cc1
S = N=C(N)NCCCCCCc1ccc2c(c1)C(=O)N(CCC(=O)O)CC(=O)N2Cc1ccc(C(F)(F)F)cc1 [Cmpd 89, trifluoroacetate]
Rank the 4 molecules: largest IC50 first, smallest last. Give the labels in the order specified.
P, Q, S, R
(P: 30 µM, Q: 0.254 µM, S: 0.047 µM, R: 0.031 µM)
